measurement protocol: VP16 counterscreen qHTS for inhibitors of ROR gamma transcriptional activity;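 further: Gal4-VP16 expression switched on by copper sulfate through the metallothionein promoter; nearly all actives have a fitted effect of over 50% in size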
conditions used: Drosophila S2 Gal4-VP16 UAS-luciferase, luminescence, 20 h; series mostly up to 53.6 µM
The whole screen tested about 310,000 compounds, of which about 11,000 (3.5%) were called active. Not shown: some 8% with an inconclusive outcome. The call rests on the fitted dose curve; in most records, active means well fitted inhibition curve with a large enough effect; inconclusive means small, poorly fitted or top-dose-only effect, or effect the other way; inactive means flat fitted curve, though single readings scatter. Shown is part of a subset that was picked to be rich in actives.
Respond only with the outcome that fits, drawn from active, inactive

Ask: Assay outcome for COc1ccc(CC(=O)NCC(=O)N/N=C/c2cc(Br)ccc2OC)cc1 : what was it?
Reply: inactive

Ask: Assay result, entry COc1ccc(CC(=O)N/N=C/c2cc([N+](=O)[O-])cc(Br)c2O)cc1 — outcome?
Reply: active

Ask: # outcome recorded in this test, key = Cc1oc(-c2ccccc2F)nc1CS(=O)CC(=O)NCCN1CCCCC1C (stereo not given)
Reply: inactive

Ask: Test call, this compound: O=C(CSCC(=O)Nc1cccc([N+](=O)[O-])c1)Nc1ccccc1
Reply: inactive

Ask: Just curious, what result did CC1CCCN(S(=O)(=O)c2ccc(C(=O)Nc3nnc(-c4ccncc4)o3)cc2)C1 (stereo not given) get here?
Reply: inactive

Ask: Recorded call for Cc1ccc(/C=N/NC(=O)C2=NNC(c3ccccc3)(c3ccccc3)C2)c(O)c1 ?
Reply: active

Ask: Could you please tell me the result logged for COc1cc(OC)c(/C=N/NC(=O)c2ccc([N+](=O)[O-])cc2)cc1Br in this assay?
Reply: inactive

Ask: Recorded test outcome, item CC(c1ccccn1)N(C)C(=O)c1ccc2nc(Cc3cccc(Cl)c3)oc2c1 (stereo not given)
Reply: inactive

Ask: What was the test verdict on C/C(=N\O)C1(C)N(O)C(C)(C)C(c2ccc(Br)cc2)=[N+]1[O-] (stereo not given) ?
Reply: inactive

Ask: What did the test return for CC(=O)Nc1cccc([N+](=O)[O-])c1 ?
Reply: inactive

Each recorded value in this set is attributed to PubChem BioAssay AID2546.
